- experimental_protocol: Inhibition of beta-lactamase of Escherichia coli TEM-3 […]
property: pIC50
Numbers only, as −log10 of the molar value.

CC(C)(C)OC(=O)N1CCC2C1C(=O)N2OS(=O)(=O)O (stereo not drawn): 6.78

Next, consider the following molecule.
Consider the molecule NC(=O)c1ccc(NC(=O)N2CC[C@@H]3C2C(=O)N3S(=O)(=O)O)cc1 (stereo partly drawn) and give its measured pIC50.
2.05

---

- measured_on: Beta-lactamase AmpC (Pseudomonas aeruginosa)
- experimental_protocol: Inhibition of beta-lactamase of Pseudomonas aeruginosa 18 SH (class C)
Please respond with reported pIC50 for every item in the list.
One number for each entry, as −log10 of the molar value.

NC(=O)c1ccc(NC(=O)N2CCC3C2C(=O)N3OS(=O)(=O)O)cc1 (centres undefined): 7.59
NC(=O)c1ccc(NC(=O)N2CC[C@@H]3C2C(=O)N3S(=O)(=O)O)cc1 (some centres undefined): 6.66
CC(C)(C)OC(=O)N1CCC2C1C(=O)N2OS(=O)(=O)O (centres undefined): 7.55

Next, consider the following compound.
Consider the compound CC(C)(C)OC(=O)N1CC[C@@H]2C1C(=O)N2S(=O)(=O)O (some centres undefined) and give its measured pIC50.
5.82
